Consider the following compounds and their measured Change readings.
Tested on: Rattus norvegicus
Experiment: Effect on serum Triglycerides was determined in normal rats at a dose of 0.2 (mmol/kg)/day
Type: functional

{"Compound": "CC1(c2ccccc2)OC(C(=O)O)=CC1=O (stereo in doubt; 5b)", "Change": "-52%"}
{"Compound": "CC1(c2ccc(Cl)cc2)OC(C(=O)O)=CC1=O (configuration not stated)", "Change": "-42%"}
{"Compound": "COC(=O)C1=CC(=O)C(C)(c2ccccc2)O1 (configuration not stated)", "Change": "-40%"}
{"Compound": "CC1(c2ccccc2)OC(=O)C(=O)CC1=O (configuration not stated)", "Change": "-31%"}
{"Compound": "CC1(C)OC(C(=O)O)=CC1=O", "Change": "-36%"}
{"Compound": "CCOC(=O)C(C)(C)Oc1ccc(Cl)cc1 [CLOFIBRATE]", "Change": "-36%"}

Kindly review the next compound as well.
CC(C)C1(c2ccccc2)OC(C(=O)O)=CC1=O (configuration not stated) has a reported Change of -31%
